target system: T1, EsCas13d, nuclease-dead (Eubacterium siraeum, UniProt B0MS50, R295A;H300A;R849A;H854A)
T1 sequence: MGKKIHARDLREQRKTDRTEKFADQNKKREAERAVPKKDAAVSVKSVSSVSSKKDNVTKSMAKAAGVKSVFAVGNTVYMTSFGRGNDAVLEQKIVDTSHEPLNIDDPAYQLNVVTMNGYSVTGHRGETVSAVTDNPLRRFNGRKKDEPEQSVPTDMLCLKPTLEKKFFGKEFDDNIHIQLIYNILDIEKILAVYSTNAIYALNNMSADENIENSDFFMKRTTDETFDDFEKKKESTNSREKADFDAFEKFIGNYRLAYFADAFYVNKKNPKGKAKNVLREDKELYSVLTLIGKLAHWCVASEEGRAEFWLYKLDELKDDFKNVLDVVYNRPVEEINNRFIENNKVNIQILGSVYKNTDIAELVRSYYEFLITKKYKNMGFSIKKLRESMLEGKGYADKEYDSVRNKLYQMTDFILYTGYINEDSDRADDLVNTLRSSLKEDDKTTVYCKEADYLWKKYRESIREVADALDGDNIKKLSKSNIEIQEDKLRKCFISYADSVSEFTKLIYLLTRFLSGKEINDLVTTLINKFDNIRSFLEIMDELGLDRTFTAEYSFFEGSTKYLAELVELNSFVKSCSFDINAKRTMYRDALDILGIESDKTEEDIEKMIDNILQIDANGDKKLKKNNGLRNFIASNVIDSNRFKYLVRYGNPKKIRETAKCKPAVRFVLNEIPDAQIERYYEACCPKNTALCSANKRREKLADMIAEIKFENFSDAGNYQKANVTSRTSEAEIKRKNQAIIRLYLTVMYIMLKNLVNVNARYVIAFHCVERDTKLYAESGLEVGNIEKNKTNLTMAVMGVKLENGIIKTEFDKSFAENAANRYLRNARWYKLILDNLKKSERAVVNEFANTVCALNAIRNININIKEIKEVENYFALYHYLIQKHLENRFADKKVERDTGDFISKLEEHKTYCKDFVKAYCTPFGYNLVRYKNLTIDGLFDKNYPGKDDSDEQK
procedure summary: crRNA (strand 1, pre-loaded); Mg2+; 40 mM Tris-HCl pH 7.5, 150 mM NaCl, 6 mM MgCl2, 1 mM DTT, 0.1% Tween-20, 0.2 mg/ml BSA; 25 C; 10 min per concentration, then washed
test conditions: tags: His6-TwinStrep-SUMO cleaved; N-terminal SNAP kept (SNAP-Surface 488); label: 3' end held by stalled T7 RNA polymerase
The binders listed here are annotated with their pKd.
pKd (log units): -log10 of the concentration in mol/L.

1) target 2 MT 5'PFS GUG 3'PFS UAC (mixed) RNA 1: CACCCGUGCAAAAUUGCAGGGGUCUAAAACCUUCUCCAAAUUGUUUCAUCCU RNA 2: GGGAAUGGAUCCACAUCUACGAAUUCGUGAGGAUGAAACAAUUUGGAGAAGUACAGAUCGGAAGAGCACACGU; 7.82

Please examine the following record next.
Query: Find the measured pKd of target 1 insC 3' of 16,insA 3' of 4 (mixed) RNA 1: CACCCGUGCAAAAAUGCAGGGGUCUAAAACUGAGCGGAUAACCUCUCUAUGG RNA 2: GGGAAUGGAUCCACAUCUACGAAUUCGUACCAUAGACGAGGUUAUCCGCAUCACCGAGAUCGGAAGAGCACACGU and report it.
Reply: 7.42

Values compiled from paper PMC10786891.
